Target: Alpha-2A adrenergic receptor (Homo sapiens)
Sequence (P08913 whole entry): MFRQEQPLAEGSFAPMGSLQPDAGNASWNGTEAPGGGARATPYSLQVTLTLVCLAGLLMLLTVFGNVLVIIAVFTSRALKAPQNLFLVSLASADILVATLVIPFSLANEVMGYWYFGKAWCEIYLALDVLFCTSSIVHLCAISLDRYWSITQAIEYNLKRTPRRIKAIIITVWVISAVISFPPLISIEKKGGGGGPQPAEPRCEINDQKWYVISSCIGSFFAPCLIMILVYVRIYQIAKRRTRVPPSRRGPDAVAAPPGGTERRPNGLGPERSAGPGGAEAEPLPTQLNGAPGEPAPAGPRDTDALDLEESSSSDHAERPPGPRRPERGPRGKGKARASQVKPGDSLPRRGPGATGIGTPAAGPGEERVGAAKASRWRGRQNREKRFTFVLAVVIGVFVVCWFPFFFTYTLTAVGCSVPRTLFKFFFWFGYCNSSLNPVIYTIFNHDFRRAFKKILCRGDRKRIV
pKi: −log10 of the molar value.
recorded-endpoint: pKi

Which measured pKi value corresponds to O=C(Cc1ccccc1)NC1CCN(CCCN2C(=O)COc3ccccc32)CC1 ? ≤ 6.00

###

Target: Mu-type opioid receptor (Homo sapiens, UniProt P35372)
Sequence (P35372 whole entry): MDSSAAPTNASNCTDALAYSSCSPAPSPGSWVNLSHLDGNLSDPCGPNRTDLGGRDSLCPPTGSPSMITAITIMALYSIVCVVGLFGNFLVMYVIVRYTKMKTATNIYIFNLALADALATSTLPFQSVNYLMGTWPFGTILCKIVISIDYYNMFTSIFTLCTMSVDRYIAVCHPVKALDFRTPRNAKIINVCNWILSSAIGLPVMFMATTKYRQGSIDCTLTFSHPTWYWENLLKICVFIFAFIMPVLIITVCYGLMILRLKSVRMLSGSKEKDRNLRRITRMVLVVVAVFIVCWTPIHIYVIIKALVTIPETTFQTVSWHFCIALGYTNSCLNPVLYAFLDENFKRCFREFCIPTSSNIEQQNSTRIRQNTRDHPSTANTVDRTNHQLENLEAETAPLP
Assay: Binding affinity to human mu opioid receptor agonist site by radioligand displacement assay
recorded-endpoint: Ki

Which measured Ki value corresponds to O=C(Cc1ccccc1)NC1CCN(CCCN2C(=O)COc3ccccc32)CC1 ? ≥ 1 µM

###

Assay: Oral bioavailability in rat plasma at 2 mg/kg
Assay type: ADME, organism-based
recorded-endpoint: bioavailability (%)
Report the value in % with no unit label.

Which measured bioavailability value corresponds to O=C(Cc1ccccc1)NC1CCN(CCCN2C(=O)COc3ccccc32)CC1 ? 4
